The origin of these recorded values is patent US11447504B2.

System: SUDHL10
Experiment: Induction of cytotoxicity (Assay 6), SUDHL10
Conditions: Homo sapiens, SU-DHL10, 5 h, read-out: Cytotox SUDHL10 IC50 (median), SUDHL10 cells, 5 hours, CellTiter-Glo
In this section we review reported IC50 values for a set of compounds.
Quick reminder: number only, in nM, skip the unit.

Sample answers from the record:
>  <compound>
CCc1c2c(nn1C)N(C)CCCCCn1c(C(=O)O)c(CCCOc3cccc4cc(F)ccc34)c3ccc(Cl)c-2c31 (racemic) [Example 77]

>  <reported_measurement>
870

$$$$
>  <compound>
Cc1c2c(nn1CCCN1CCN(C)CC1)COCCCCn1c(C(=O)O)c(CCCOc3cccc4ccccc34)c3ccc(Cl)c-2c31 (racemic) [Example 48]

>  <reported_measurement>
1000

$$$$
>  <compound>
Cc1c2c(nn1C)CN(C)CCCn1c(C(=O)O)c(CCCOc3cccc4ccccc34)c3ccc(Cl)c-2c31 (racemic) [Example 29]

>  <reported_measurement>
3200

$$$$

Return the recorded IC50 value; entry: Cc1c2c(nn1C)CN(C)CCCCn1c(C(=O)O)c(CCCOc3cccc4ccccc34)c3ccc(Cl)c-2c31 (racemic) [Example 11]
370

====

Target: UniProt:Q07817
Sequence (Q07817 other isoform, or with tags, fused parts or gaps): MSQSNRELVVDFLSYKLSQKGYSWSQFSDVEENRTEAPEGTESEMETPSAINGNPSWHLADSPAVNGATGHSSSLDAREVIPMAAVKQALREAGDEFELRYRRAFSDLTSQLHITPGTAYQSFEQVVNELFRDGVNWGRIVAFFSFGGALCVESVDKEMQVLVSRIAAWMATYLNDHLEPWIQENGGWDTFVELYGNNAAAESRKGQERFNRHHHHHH
Experiment: Protein-protein interaction assay BCL-XL/Bad BH3 peptide (BCL-XL Assay, TR-FRET)
Conditions: read-out: BCL-XL Assay IC50 (median)
pIC50: −log10 of the molar value.
endpoint: pIC50

>  <compound>
CCc1c2c(nn1C)COC/C=C\Cn1c(C(=O)O)c(CCCOc3cccc4ccccc34)c3ccc(Cl)c-2c31 (racemic)

>  <reported_measurement>
< 4.70

$$$$
>  <compound>
Cc1c2c(nn1C)N(C)CCCCCn1c(C(=O)O)c(CCCOc3cccc4ccccc34)c3ccc(Cl)c-2c31 (racemic) [Example 71]

>  <reported_measurement>
< 4.70

$$$$

Next up:
Return the recorded pIC50 value; entry: CCc1c2c(nn1C)N(C)CCCCCn1c(C(=O)O)c(CCCOc3cccc4cc(F)ccc34)c3ccc(Cl)c-2c31 (racemic) [Example 77]
< 4.70

====

Tested on: SUDHL10
Experiment: Induction of cytotoxicity (Assay 6), SUDHL10
Conditions: Homo sapiens, SU-DHL10, 5 h, read-out: Cytotox SUDHL10 IC50 (median), SUDHL10 cells, 5 hours, CellTiter-Glo
Assign labels as follows, please: 1.0 for IC50 below 700 nM; 0.0 for IC50 equal to or exceeding 700 nM.

Record excerpt, results attached:
>  <compound>
CCc1nn(CCN2CCOCC2)c2c1-c1c(Cl)ccc3c(CCCOc4cccc5ccccc45)c(C(=O)O)n(c13)CCCCOC2 (single isomer, unassigned; enantiomer 2)

>  <system_tested>
SUDHL10

>  <classification>
0.0

$$$$
>  <compound>
CCc1c2c(nn1C)CN(C)CCCCn1c(C(=O)O)c(CCCOc3cccc4cc(F)ccc34)c3ccc(Cl)c-2c31 (racemic)

>  <system_tested>
SUDHL10

>  <classification>
1.0

$$$$
>  <compound>
CCc1nn(CCN2CCOCC2)c2c1-c1c(Cl)ccc3c(CCCOc4cccc5ccccc45)c(C(=O)O)n(c13)CCCCN(C)C2 (racemic)

>  <system_tested>
SUDHL10

>  <classification>
0.0

$$$$
>  <compound>
Cc1c2c(nn1C)CNCCCn1c(C(=O)O)c(CCCOc3cccc4ccccc34)c3ccc(Cl)c-2c31 (racemic)

>  <system_tested>
SUDHL10

>  <classification>
0.0

$$$$

Dear colleague, could you confirm whether IC50 of CCc1c2c(nn1C)CCCCCCn1c(C(=O)O)c(CCCOc3cccc4cc(F)ccc34)c3ccc(Cl)c-2c31 (racemic) falls below 700 nM? Thanks.
0.0

Dear colleague, could you confirm whether IC50 of Cc1c2c(nn1C)CN(CC(F)(F)F)CCCCn1c(C(=O)O)c(CCCOc3cccc4cc(F)ccc34)c3ccc(Cl)c-2c31 (racemic) falls below 700 nM? Thanks.
1.0

====

Tested on: HMC-1-8
Experiment: Antiproliferation assay 7, HMC-1-8
Type: cell-based
Details: 72 h, HMC-1-8 cells, CellTiter-Glo, read-out: Antiproli HMC-1-8 IC50 median
endpoint: pIC50
Expect pIC50 as a plain number equal to -log10 of the molar concentration.

>  <compound>
Cc1c2c(nn1C)CN(C)CCCCn1c(C(=O)O)c(CCCOc3cccc4cc(F)ccc34)c3ccc(Cl)c-2c31 (racemic)

>  <system_tested>
HMC-1-8

>  <pIC50>
5.81

$$$$

Return the recorded pIC50 value; entry: CCc1nn(CCN2CCOCC2)c2c1-c1c(Cl)ccc3c(CCCOc4cccc5ccccc45)c(C(=O)O)n(c13)CCCCN(C)C2 (single isomer, unassigned; enantiomer 1)
6.09

Return the recorded pIC50 value; entry: Cc1c2c(nn1C)COCC(F)(F)CCn1c(C(=O)O)c(CCCOc3cccc4ccccc34)c3ccc(Cl)c-2c31 (single isomer, unassigned; enantiomer 1)
5.08

====

System: SUDHL10
Assay: Antiproliferation assay 7, SUDHL10
Format: cell-based
Conditions: Homo sapiens, SU-DHL10, 72 h, SUDHL10 cells, CellTiter-Glo, read-out: Antiproli SUDHL10 IC50 (median)
In this section we review reported pIC50 values for a set of compounds.
Expect pIC50 as a plain number equal to -log10 of the molar concentration.

>  <compound>
Cc1c2c(nn1C)CN(C)CCCCn1c(C(=O)O)c(CCCOc3cccc4cc(F)ccc34)c3ccc(Cl)c-2c31 (racemic) [Example 30]

>  <endpoint>
pIC50

>  <reported_measurement>
6.82

$$$$

State pIC50 on SUDHL10. Entry: Cc1nn(C)c2c1-c1c(Cl)ccc3c(CCCOc4cccc5ccccc45)c(C(=O)O)n(c13)C/C=C\COC2 (racemic) [Example 1]
5.24

State pIC50 on SUDHL10. Entry: CCc1c2c(nn1C)CN(C)CCCCn1c(C(=O)O)c(CCCOc3cccc4cc(F)ccc34)c3ccc(Cl)c-2c31 (racemic) [Example 5]
6.55

State pIC50 on SUDHL10. Entry: Cc1c2c(nn1C)CN(C)CCCCn1c(C(=O)O)c(CCCOc3cccc4ccccc34)c3ccc(Cl)c-2c31 (single isomer, unassigned; enantiomer 1) [Example 12]
6.85

State pIC50 on SUDHL10. Entry: CCc1c2c(nn1C)COCCCCn1c(C(=O)O)c(CCCOc3cccc4ccccc34)c3ccc(Cl)c-2c31 (single isomer, unassigned; enantiomer 1) [Example 20]
6.35

State pIC50 on SUDHL10. Entry: Cc1nn(C)c2c1-c1c(Cl)ccc3c(CCCOc4cccc5ccccc45)c(C(=O)O)n(c13)CCCCOC2 (racemic) [Example 2]
5.62

State pIC50 on SUDHL10. Entry: Cc1c2c(nn1C)COCCCCn1c(C(=O)O)c(CCCOc3cccc4cc(F)ccc34)c3ccc(Cl)c-2c31 (racemic) [Example 14]
6.38

====

Tested on: SUDHL10
Test: Induction of cytotoxicity (Assay 6), SUDHL10
Details: read-out: Cytotox SUDHL10 IC50 (median); SUDHL10 cells, 5 hours, CellTiter-Glo
pIC50: −log10 of the molar value.
Answer 0 (no) if pIC50 is under 6, and 1 (yes) if it is 6 or more.

Record excerpt, results attached:
>  <molecule>
Cc1c2c(nn1C)COCC(F)(F)CCn1c(C(=O)O)c(CCCOc3cccc4ccccc34)c3ccc(Cl)c-2c31 (single isomer, unassigned; enantiomer 2) [Example 57]

>  <classification>
0 (no)

$$$$
>  <molecule>
CCc1c2c(nn1C)N(CCC1CCOCC1)CCCCCn1c(C(=O)O)c(CCCOc3cccc4cc(F)ccc34)c3ccc(Cl)c-2c31 (single isomer, unassigned; enantiomer 1) [Example 81]

>  <classification>
1 (yes)

$$$$
>  <molecule>
Cc1c2c(nn1C)N(C)CCCCCn1c(C(=O)O)c(CCCOc3cccc4cc(F)ccc34)c3ccc(Cl)c-2c31 [Example 76]

>  <classification>
0 (no)

$$$$

Let's switch to this molecule now.
pIC50 >= 6 for Cc1c2c(nn1C)COCC1CC1Cn1c(C(=O)O)c(CCCOc3cccc4ccccc34)c3ccc(Cl)c-2c31 (single isomer, unassigned; stereoisomer 1) [Example 65] ?
1 (yes)

====

System: SUDHL10
Assay: Induction of cytotoxicity (Assay 6), SUDHL10
Conditions: read-out: Cytotox SUDHL10 IC50 (median); SUDHL10 cells, 5 hours, CellTiter-Glo
pIC50: −log10 of the molar value.
Answer NO if pIC50 is under 5, and YES if it is 5 or more.

Record excerpt, results attached:
>  <compound>
CCc1c2c(nn1C)CN(C)CCCCn1c(C(=O)O)c(CCCOc3cccc4ccccc34)c3ccc(Cl)c-2c31 (single isomer, unassigned; enantiomer 1) [Example 23]

>  <system_tested>
SUDHL10

>  <classification>
YES

$$$$
>  <compound>
Cc1c2c(nn1C)COCCCCn1c(C(=O)O)c(CCCOc3cccc4cc(F)ccc34)c3ccc(Cl)c-2c31 (single isomer, unassigned; enantiomer 1)

>  <system_tested>
SUDHL10

>  <classification>
YES

$$$$
>  <compound>
Cc1c2c(nn1C)CN(C)CCCCn1c(C(=O)O)c(CCCOc3cccc4cc(F)ccc34)c3ccc(Cl)c-2c31 (single isomer, unassigned; enantiomer 2) [Example 32]

>  <system_tested>
SUDHL10

>  <classification>
NO

$$$$

pIC50 >= 5 for CCc1c2c(nn1C)N(C)CCCCCn1c(C(=O)O)c(CCCOc3cccc4cc(F)ccc34)c3ccc(Cl)c-2c31 (single isomer, unassigned; enantiomer 2) [Example 79] ?
YES

pIC50 >= 5 for CCc1c2c(nn1C)COCCCCn1c(C(=O)O)c(CCCOc3cccc4cc(F)ccc34)c3ccc(Cl)c-2c31 (single isomer, unassigned; enantiomer 2) ?
NO

pIC50 >= 5 for CCc1c2c(nn1C)CN(C)CCCCn1c(C(=O)O)c(CCCOc3cccc4cc(F)ccc34)c3ccc(Cl)c-2c31 (single isomer, unassigned; enantiomer 1) [Example 6] ?
YES

pIC50 >= 5 for Cc1c2c(nn1C)CN(CC(F)(F)F)CCCCn1c(C(=O)O)c(CCCOc3cccc4cc(F)ccc34)c3ccc(Cl)c-2c31 (single isomer, unassigned; enantiomer 1) [Example 59] ?
YES
